Study Target: T1, human TF extracellular domain protein (TF-ECD, Met 1-Glu 251) (human, UniProt P13726 33-251)
T1 construct: range 1-251; also called human TF-ECD; not shown: His tag (protein captured on an NTA sensor as 'FDYKSD-01-His')
Protocol: ForteBio OCTET R2; His-tagged antigen on NTA sensor, nanobody-Fc 25-1.56 nM in solution, 25°C
Measurement Kind: Kd
Quick note: unit goes after the number.

// lookup Kd for 4-E04-FC1 (chimeric nanobody: 4-E04 VHH fused with human Fc mutant fragment FC1) (Fc fusion, built from the VHH and FC1) AVQLVESGGGLVQPGGSLSLSCAASEMISSTYIMGWYRRSPGKERELVAVISGDGVTHYGDFVKGRFAISRDNVKNAVYLKMNFLTPEDTAVYYCNAAGRRNHWGQGTQVTVSSEPKSSDKTHTCPPCPAPEFEGGPSVFLFPPKPKDTLMISRTPEVTCVVVDVSHEDPEVKFNWYVDGVEVHNAKTKPREEQYNSTYRVVSVLTVLHQDWLNGKEYKCKVSNKALPASIEKTISKAKGQPREPQVYTLPPSRDELTKNQVSLTCLVKGFYPSDIAVEWESNGQPENNYKTTPPVLDSDGSFFLYSKLTVDKSRWQQGNVFSCSVMHEALHNHYTQKSLSLSPGK
7.04 nM

All values here come from patent EP4696714A1.
